test system: endometrioid ovarian cancer cell line A2780; test: 5-day MTT assay in A2780 cells; type: cell-based; details: Homo sapiens, 120 h; A2780, 5-day MTT assay
EXPERIMENTAL ENDPOINT: pEC50
Friendly reminder that pEC50 comes from taking -log10 of the concentration in mol/L.

Query string: Request - read-out pEC50 | tested on endometrioid ovarian cancer cell line A2780 | compound COc1cccc2c1OCC(C(=O)Nc1ccc3c(c1)CN(C1CCC(=O)NC1=O)C3=O)=C2 (stereo not shown)
Result string: 7.57

* * *

The molecules listed here are annotated with their GSPT1% degradation at 100 nM.
molecular target: GSPT1 (Homo sapiens, UniProt P15170+Q96SW2); assay: Flow cytometry for measuring degradation, HEK293T GFP-POI reporter cells (GSPT1); format: cell-based; parameters: expressed in transfected cells; host or cells: HEK293T; details: 100 nM, 24 h, HEK293T GFP reporter
Sequence (P15170 whole entry): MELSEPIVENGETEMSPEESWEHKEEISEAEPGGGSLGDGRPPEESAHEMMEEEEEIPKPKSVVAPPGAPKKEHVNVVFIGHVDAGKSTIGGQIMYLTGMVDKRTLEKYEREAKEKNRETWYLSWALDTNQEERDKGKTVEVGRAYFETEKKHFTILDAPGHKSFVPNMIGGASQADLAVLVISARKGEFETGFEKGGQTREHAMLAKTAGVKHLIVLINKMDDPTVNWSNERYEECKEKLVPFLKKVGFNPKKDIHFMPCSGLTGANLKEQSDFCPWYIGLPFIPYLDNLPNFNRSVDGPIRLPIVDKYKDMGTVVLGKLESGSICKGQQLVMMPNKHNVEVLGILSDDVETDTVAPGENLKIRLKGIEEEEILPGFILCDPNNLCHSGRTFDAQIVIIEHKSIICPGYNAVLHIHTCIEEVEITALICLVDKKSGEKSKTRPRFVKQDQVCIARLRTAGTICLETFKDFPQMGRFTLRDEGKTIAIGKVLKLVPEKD
Sequence (Q96SW2 whole entry): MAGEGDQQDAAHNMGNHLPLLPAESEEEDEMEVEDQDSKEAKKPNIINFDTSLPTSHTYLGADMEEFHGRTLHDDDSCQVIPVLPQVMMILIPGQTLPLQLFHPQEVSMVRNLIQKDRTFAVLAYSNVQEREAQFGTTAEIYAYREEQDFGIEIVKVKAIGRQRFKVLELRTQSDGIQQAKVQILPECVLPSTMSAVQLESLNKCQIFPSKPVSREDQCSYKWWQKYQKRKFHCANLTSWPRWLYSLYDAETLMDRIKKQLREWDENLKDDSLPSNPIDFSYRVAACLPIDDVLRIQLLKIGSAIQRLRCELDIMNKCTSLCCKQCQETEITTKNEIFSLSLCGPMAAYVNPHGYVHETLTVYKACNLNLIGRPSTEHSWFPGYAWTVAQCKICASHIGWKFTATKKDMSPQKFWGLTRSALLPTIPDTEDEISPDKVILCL
Sequence (Q16531 whole entry partner): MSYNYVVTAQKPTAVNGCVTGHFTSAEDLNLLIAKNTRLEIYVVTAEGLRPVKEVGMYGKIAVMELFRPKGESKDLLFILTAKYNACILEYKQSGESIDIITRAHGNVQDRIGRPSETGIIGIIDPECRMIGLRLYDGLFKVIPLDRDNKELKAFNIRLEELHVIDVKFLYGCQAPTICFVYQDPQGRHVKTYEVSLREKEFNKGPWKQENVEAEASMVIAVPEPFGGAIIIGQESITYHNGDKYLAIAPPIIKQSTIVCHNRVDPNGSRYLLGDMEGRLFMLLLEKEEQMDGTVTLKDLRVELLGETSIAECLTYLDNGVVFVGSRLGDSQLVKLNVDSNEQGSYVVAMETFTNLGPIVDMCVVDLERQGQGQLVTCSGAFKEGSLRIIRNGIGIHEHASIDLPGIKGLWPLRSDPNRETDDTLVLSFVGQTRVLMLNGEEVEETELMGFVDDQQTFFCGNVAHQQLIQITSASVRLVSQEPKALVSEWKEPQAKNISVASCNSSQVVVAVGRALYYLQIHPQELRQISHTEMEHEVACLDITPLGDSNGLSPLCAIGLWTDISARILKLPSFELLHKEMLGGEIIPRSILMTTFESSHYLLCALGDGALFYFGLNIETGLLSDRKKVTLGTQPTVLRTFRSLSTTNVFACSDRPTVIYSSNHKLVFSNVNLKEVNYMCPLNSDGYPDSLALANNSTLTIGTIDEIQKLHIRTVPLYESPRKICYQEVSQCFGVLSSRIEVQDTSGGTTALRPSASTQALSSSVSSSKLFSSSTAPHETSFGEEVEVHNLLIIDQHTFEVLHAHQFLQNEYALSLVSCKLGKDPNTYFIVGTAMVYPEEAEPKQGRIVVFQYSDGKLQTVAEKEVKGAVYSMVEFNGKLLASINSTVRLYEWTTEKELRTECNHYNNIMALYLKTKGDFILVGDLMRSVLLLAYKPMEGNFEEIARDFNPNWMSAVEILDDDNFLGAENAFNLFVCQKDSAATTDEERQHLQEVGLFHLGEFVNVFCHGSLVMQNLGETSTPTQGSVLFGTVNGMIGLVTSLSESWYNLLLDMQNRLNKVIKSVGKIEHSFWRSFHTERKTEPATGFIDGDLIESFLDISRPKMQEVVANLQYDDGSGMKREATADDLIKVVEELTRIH
Value expressed in %; do not type the unit.

Here's what some known entries look like.
* O=C1CCC(N2Cc3cc(NC(=O)c4ccc5occc5c4)ccc3C2=O)C(=O)N1 (centres unmarked) [DEG-62] | 2
* CC(=O)N1CCC[C@H]1C(=O)Nc1ccc2c(c1)CN(C1CCC(=O)NC1=O)C2=O (some centres unmarked) [DEG-96] | 8.6
* COc1ccc2c(c1)C=C(C(=O)Nc1ccc3c(c1)CN(C1CCC(=O)NC1=O)C3=O)CO2 (centres unmarked) [DEG-78] | 9.2
* O=C1CCC(N2Cc3cc(NC(=O)c4ccc(Sc5ccccc5)cc4)ccc3C2=O)C(=O)N1 (centres unmarked) [DEG-73] | 11.1
* O=C1CCC(N2Cc3cc(NC(=O)C4=Cc5ccc(OC(F)(F)F)cc5OC4)ccc3C2=O)C(=O)N1 (centres unmarked) [DEG-82] | 6.1

Query string: Need GSPT1% degradation at 100 nM, item COc1ccc2c(c1)OCC(C(=O)Nc1ccc3c(c1)CN(C1CCC(=O)NC1=O)C3=O)=C2 (centres unmarked) [DEG-74]
Result string: 9

Query string: Need GSPT1% degradation at 100 nM, item COc1ccc(/C=C/C(=O)Nc2ccc3c(c2)CN(C2CCC(=O)NC2=O)C3=O)cc1 (centres unmarked) [DEG-60]
Result string: 11.6

Query string: Need GSPT1% degradation at 100 nM, item O=C1CCC(N2Cc3cc(NC(=O)C4=Cc5cc(Br)cc(Br)c5OC4)ccc3C2=O)C(=O)N1 (centres unmarked) [DEG-86]
Result string: 5.3

Sourced from patent US20260021103A1
